src = patent US20120077802A1

molecular target: human histamine H3 receptor (Homo sapiens, UniProt Q9Y5N1); construct: host or cells: cells expressing the human H3 receptor; assay: H3 GTPγS assay (SPA method), histamine H3 in vitro assay; type: biochemical; conditions: GTPγ[35S] SPA, membranes of cells expressing human H3 receptor; in one embodiment HCl salts tested; read-out: Potency (functional potency as indicated by IC50)
Sequence (Q9Y5N1 whole entry): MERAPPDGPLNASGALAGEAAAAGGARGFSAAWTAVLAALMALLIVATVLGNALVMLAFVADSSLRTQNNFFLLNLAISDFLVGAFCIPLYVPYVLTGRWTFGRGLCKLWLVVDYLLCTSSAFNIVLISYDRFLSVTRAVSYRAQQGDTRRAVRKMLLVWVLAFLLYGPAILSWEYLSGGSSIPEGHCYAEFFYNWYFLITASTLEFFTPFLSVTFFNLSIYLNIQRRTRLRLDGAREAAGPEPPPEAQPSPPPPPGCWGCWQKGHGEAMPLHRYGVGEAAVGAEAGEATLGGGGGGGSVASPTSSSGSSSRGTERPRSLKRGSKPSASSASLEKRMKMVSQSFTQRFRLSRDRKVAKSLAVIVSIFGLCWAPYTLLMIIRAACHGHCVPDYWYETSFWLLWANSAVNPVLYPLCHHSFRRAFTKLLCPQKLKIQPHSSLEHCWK
pIC50: −log10 of the molar value.
measured.metric: pIC50

The examples below pair each entry with its known result.
Req: Return pIC50 measured with human histamine H3 receptor (Homo sapiens, UniProt Q9Y5N1) given this compound: c1ccc2c(c1)CCN(Cc1ccc3c(c1)CC1(CCN4CCCCC4C1)O3)C2 (stereo not shown) [Compound 80]
Resp: ≥ 8.00

Req: Return pIC50 measured with human histamine H3 receptor (Homo sapiens, UniProt Q9Y5N1) given this compound: c1cnc(-c2ccc3c(c2)OC2(CCN(C4CCC4)CC2)C3)cn1
Resp: ≥ 7.00

Req: Return pIC50 measured with human histamine H3 receptor (Homo sapiens, UniProt Q9Y5N1) given this compound: c1cc2ncc(-c3ccc4c(c3)CC3(CCN(C5CCC5)CC3)O4)cc2o1
Resp: ≥ 8.00

Req: Return pIC50 measured with human histamine H3 receptor (Homo sapiens, UniProt Q9Y5N1) given this compound: N#Cc1ccc(-c2ccc3c(c2)CC2(CCN(C4CCOCC4)CC2)O3)cc1
Resp: ≥ 7.00

Hey, can you go through the list below and give me pIC50 for every item?
1. c1ccc2c(c1)ncn2-c1ccc2c(c1)C[C@]1(CCCN(C3CCC3)CC1)O2 (single isomer, unassigned) [Compound 53]
2. CN1CCN(c2ccc3c(c2)OC2(CCN(C4CCC4)CC2)C3)CC1
3. N#Cc1ccc(-c2ccc3c(c2)CC2(CCN4CCCCC4C2)O3)cc1 (stereo not shown) [Compound 74]
4. COc1ccnc(-c2ccc3c(c2)OC2(CCN(C4CCC4)CC2)C3)n1
5. CN1CCC(N2CCC3(CC2)Cc2cc(Br)ccc2O3)CC1

Resp:
1: ≥ 7.00; 2: ≥ 7.00; 3: ≥ 8.00; 4: ≥ 7.00; 5: ≥ 6.00

Hey, can you go through the list below and give me pIC50 for every item?
1. Brc1ccc2c(c1)CC1(CCCN(C3CCC3)CC1)O2 (stereo not shown)
2. CC(=O)Nc1ccc(-c2ccc3c(c2)CC2(CCN(C(C)C4CCC4)CC2)O3)cc1 (stereo not shown)
3. c1cc2c(cc1-c1ccc3cncn3c1)CC1(CCN(C3CCC3)CC1)O2

Resp:
1: ≥ 6.00; 2: ≥ 8.00; 3: ≥ 8.00

Hey, can you go through the list below and give me pIC50 for every item?
1. CC(C1CCC1)N1CCC2(CC1)Cc1ccccc1O2 (stereo not shown)
2. c1cc2c(cc1N1CCCCC1)CC1(CCN(C3CCC3)CC1)O2
3. c1cc2c(cc1CN1CCOCC1)CC1(CCN3CCCC3C1)O2 (stereo not shown)
4. c1cc2c(cc1CN1CCOCC1)OC1(CCN(C3CCC3)CC1)C2

Resp:
1. ≥ 6.00
2. ≥ 7.00
3. ≥ 8.00
4. ≥ 7.00

###

test: In vivo rat PK, brain exposures; settings: adult male rats, oral gavage in water, 10 mg/kg, 24 hr after dosing, read-out: Compound Concentration (ng/g rat brain) 24 hr
measured.metric: concentration at 24 hr
Write the numeric value and append its unit.

Req: I have this compound here, c1cn2cc(-c3ccc4c(c3)CC3(CCN(C5CCC5)CC3)O4)ccc2n1 [Compound 30] , and I need its recorded concentration at 24 hr.
Resp: 250 ng/g

###

Give measured pIC50 for each item. Keep answers brief.
target: human histamine H3 receptor (Homo sapiens); construct: host or cells: cells expressing the human H3 receptor; test: H3 GTPγS assay (SPA method), histamine H3 in vitro assay; type: biochemical; conditions: GTPγ[35S] SPA, membranes of cells expressing human H3 receptor; in one embodiment HCl salts tested; read-out: Potency (functional potency as indicated by IC50)
pIC50: −log10 of the molar value.

Hey, can you go through the list below and give me pIC50 for every item?
1. N#Cc1ccc(-c2ccc3c(c2)CC2(CCCN4CCCCC4C2)O3)cc1 (stereo not drawn) [Compound 86]
2. CN1CCC(N2CCC3(CC2)Cc2cc(-c4ccc(C#N)cc4)ccc2O3)CC1 [Compound 8]
3. CC(C)N1CCC2(CC1)Cc1cc(-c3ccc(C#N)cc3)ccc1O2 [Compound 22]
4. c1ccc2c(c1)ncn2-c1ccc2c(c1)CC1(CCN(C3CCC3)CC1)O2 [Compound 32]
5. CC(C1CCC1)N1CCC2(CC1)Cc1cc(-c3ccc4[nH]ccc4c3)ccc1O2 (stereo not drawn) [Compound 13]
6. N#Cc1ccc(-c2ccc3c(c2)OC2(CCCN(C4CCC4)CC2)C3)cc1 (stereo not drawn) [Compound 68]
7. c1cc2cc(-c3ccc4c(c3)CC3(CCN(C5CCC5)CC3)O4)ccc2[nH]1 [Compound 7]
8. Cn1cc2ccc(-c3ccc4c(c3)CC3(CCN(C5CCC5)CC3)O4)cc2n1 [Compound 66]

Resp:
≥ 8.00
≥ 7.00
≥ 8.00
≥ 8.00
≥ 7.00
≥ 7.00
≥ 7.00
≥ 8.00

Req: I have this compound here, Clc1ccc2c(c1)OC1(CCCN(C3CCC3)CC1)C2 (stereo not drawn) [Compound 67] , and I need its recorded pIC50.
Resp: ≥ 6.00

###

Give measured IC50 for each item. Keep answers brief.
target: human histamine H3 receptor (Homo sapiens, UniProt Q9Y5N1); construct: host or cells: cells expressing the human H3 receptor; assay: H3 GTPγS assay (SPA method), histamine H3 in vitro assay; format: biochemical; settings: GTPγ[35S] SPA, membranes of cells expressing human H3 receptor; in one embodiment HCl salts tested; read-out: Potency (functional potency as indicated by IC50)

Req: I have this compound here, N#Cc1ccc(-c2ccc3c(c2)CC2(CCN(C4CCCC4)CC2)O3)cc1 [Compound 17] , and I need its recorded IC50.
Resp: ≤ 0.1 µM

Req: I have this compound here, c1cn2cc(-c3ccc4c(c3)OC3(CCCN(C5CCC5)CC3)C4)ccc2n1 (stereo not drawn) [Compound 69] , and I need its recorded IC50.
Resp: ≤ 0.1 µM

Req: I have this compound here, CC(C1CCC1)N1CCC2(CC1)Cc1cc(-c3ccc(C#N)cc3)ccc1O2 (stereo not drawn) [Compound 11] , and I need its recorded IC50.
Resp: ≤ 0.01 µM

Hey, can you go through the list below and give me IC50 for every item?
1. c1cc2c(cc1-c1cn[nH]c1)CC1(CCN(C3CCC3)CC1)O2 [Compound 27]
2. c1cc2nc(-c3ccc4c(c3)CC3(CCN(C5CCC5)CC3)O4)ccc2[nH]1 [Compound 56]
3. Brc1ccc2c(c1)CC1(CCN(C3CCC3)CC1)O2 [Compound 23]
4. N#Cc1ccc(NCc2ccc3c(c2)CC2(CCN(C4CCC4)CC2)O3)cc1 [Compound 42]
5. c1cc2c(cc1CN1CCOCC1)CC1(CCN(C3CCC3)CC1)O2 [Compound 40]
6. c1cn2cc(-c3ccc4c(c3)CC3(CCN5CCCCC5C3)O4)ccc2n1 (stereo not drawn) [Compound 77]

Resp:
1: ≤ 0.1 µM; 2: ≤ 0.01 µM; 3: ≤ 1 µM; 4: ≤ 0.1 µM; 5: ≤ 0.01 µM; 6: ≤ 0.01 µM

###

assay: In vivo rat PK, brain exposures; conditions: adult male rats, oral gavage in water, 5 mg/kg, 24 hr after dosing, read-out: Compound Concentration (ng/g rat brain) 24 hr
measured.metric: concentration at 24 hr (ng/g)
Numbers only, in ng/g.

Req: I have this molecule here, N#Cc1ccc(-c2ccc3c(c2)CC2(CCN(C4CCC4)CC2)O3)cc1 [Compound 5] , and I need its recorded concentration at 24 hr.
Resp: 400

###

biological target: human histamine H3 receptor (Homo sapiens, UniProt Q9Y5N1); construct: host or cells: cells expressing the human H3 receptor; assay: H3 GTPγS assay (SPA method), histamine H3 in vitro assay; type: biochemical; conditions: GTPγ[35S] SPA, membranes of cells expressing human H3 receptor; in one embodiment HCl salts tested; read-out: Potency (functional potency as indicated by IC50)
pIC50: −log10 of the molar value.
measured.metric: pIC50

Req: I have this compound here, N#Cc1ccc(-c2ccc3c(c2)CC2(CCN(CC4CCC4)CC2)O3)cc1 [Compound 21] , and I need its recorded pIC50.
Resp: ≥ 6.00

Req: I have this compound here, c1cn2cc(-c3ccc4c(c3)CC3(CCN(C5CCC5)CC3)O4)ccc2n1 [Compound 30] , and I need its recorded pIC50.
Resp: ≥ 8.00

Req: I have this compound here, c1cc2c(cc1-c1cnc3[nH]ncc3c1)CC1(CCN(C3CCC3)CC1)O2 [Compound 64] , and I need its recorded pIC50.
Resp: ≥ 8.00

Req: I have this compound here, N#Cc1ccc(-c2ccc3c(c2)CC2(CCN4CCCC4C2)O3)cc1 (centres unmarked) [Compound 90] , and I need its recorded pIC50.
Resp: ≥ 8.00

Req: I have this compound here, Brc1ccc2c(c1)CC1(CCN3CCCCC3C1)O2 (single isomer, unassigned) [Compound 72] , and I need its recorded pIC50.
Resp: ≥ 6.00

Req: I have this compound here, CN1CCC(N2CCC3(CC2)Cc2cc(-c4ccc(CN)cc4)ccc2O3)CC1 [Compound 15] , and I need its recorded pIC50.
Resp: ≥ 7.00

Req: I have this compound here, CN1CCN(c2ccc3c(c2)CC2(CCN(C4CCC4)CC2)O3)CC1 [Compound 33] , and I need its recorded pIC50.
Resp: ≥ 8.00

Req: I have this compound here, c1cc2ncc(-c3ccc4c(c3)CC3(CCN(C5CCC5)CC3)O4)cc2[nH]1 [Compound 59] , and I need its recorded pIC50.
Resp: ≥ 8.00

Req: I have this compound here, N#Cc1ccc(NCc2ccc3c(c2)OC2(CCN(C4CCC4)CC2)C3)cc1 [Compound 46] , and I need its recorded pIC50.
Resp: ≥ 7.00

Req: I have this compound here, N#Cc1ccc(-c2ccc3c(c2)CC2(CCN(C4CCC4)CC2)O3)cc1 [Compound 5] , and I need its recorded pIC50.
Resp: ≥ 8.00

Hey, can you go through the list below and give me pIC50 for every item?
1. N#Cc1ccc(-c2ccc3c(c2)OC2(CCN(C4CCC4)CC2)C3)cc1 [Compound 35]
2. CN1CCC(N2CCC3(CC2)Cc2cc(-c4ccc5[nH]ccc5c4)ccc2O3)CC1 [Compound 10]

Resp:
["≥ 7.00", "≥ 6.00"]

Hey, can you go through the list below and give me pIC50 for every item?
1. c1cn2cc(-c3ccc4c(c3)CC3(CCCN5CCCCC5C3)O4)ccc2n1 (centres unmarked) [Compound 84]
2. CC(C1CCC1)N1CCC2(CC1)Cc1cc(Br)ccc1O2 (centres unmarked) [Compound 25]
3. CC(=O)Nc1ccc(-c2ccc3c(c2)CC2(CCN(C4CCC4)CC2)O3)cc1 [Compound 6]
4. c1cc2c(cc1CN1CCCC1)CC1(CCN(C3CCC3)CC1)O2 [Compound 41]
5. N#Cc1ccc(-c2ccc3c(c2)CC2(CCN4CCCCC4C2)O3)cc1 (centres unmarked) [Compound 75]
6. c1cnc(-c2ccc3c(c2)CC2(CCN(C4CCC4)CC2)O3)cn1 [Compound 29]
7. CC(C1CCC1)N1CCC2(CC1)Cc1cc(-c3ccc(CN)cc3)ccc1O2 (centres unmarked) [Compound 16]
8. c1ccc2c(c1)ncn2-c1ccc2c(c1)CC1(CCCN(C3CCC3)CC1)O2 (centres unmarked) [Compound 50]

Resp:
1: ≥ 7.00; 2: ≥ 6.00; 3: ≥ 8.00; 4: ≥ 8.00; 5: ≥ 8.00; 6: ≥ 8.00; 7: ≥ 8.00; 8: ≥ 8.00

Hey, can you go through the list below and give me pIC50 for every item?
1. c1cc2c(cc1-c1ccc3nncn3c1)CC1(CCN(C3CCC3)CC1)O2 [Compound 63]
2. CN(C)Cc1ccc2c(c1)OC1(CCN(C3CCC3)CC1)C2 [Compound 43]
3. CC(=O)Nc1ccc(-c2ccc3c(c2)CC2(CCN(C4CCN(C)CC4)CC2)O3)cc1 [Compound 9]
4. Cn1ncc2ccc(-c3ccc4c(c3)CC3(CCN(C5CCC5)CC3)O4)cc21 [Compound 65]
5. Cc1cn2cc(-c3ccc4c(c3)CC3(CCN(C5CCC5)CC3)O4)ccc2n1 [Compound 54]
6. c1cn(-c2ccc3c(c2)CC2(CCN(C4CCC4)CC2)O3)cn1 [Compound 31]
7. NCc1ccc(-c2ccc3c(c2)CC2(CCN(C4CCC4)CC2)O3)cc1 [Compound 14]
8. c1cn2cc(-c3ccc4c(c3)CC3(CCC5CCCCN5CC3)O4)ccc2n1 (centres unmarked) [Compound 83]

Resp:
1. ≥ 8.00
2. ≥ 7.00
3. ≥ 7.00
4. ≥ 8.00
5. ≥ 8.00
6. ≥ 8.00
7. ≥ 7.00
8. ≥ 7.00

Hey, can you go through the list below and give me pIC50 for every item?
1. N#Cc1ccc(-c2ccc3c(c2)CC2(CCCN(C4CCC4)CC2)O3)cc1 (centres unmarked) [Compound 48]
2. c1ccc2c(c1)ncn2-c1ccc2c(c1)C[C@]1(CCCN(C3CCC3)CC1)O2 (single isomer, unassigned) [Compound 52]
3. c1cn2cc(-c3ccc4c(c3)CC3(CCN5CCCC5C3)O4)ccc2n1 (centres unmarked) [Compound 91]
4. c1cc2c(cc1CN1CCOCC1)CC1(CCN3CCCCC3C1)O2 (centres unmarked) [Compound 78]
5. c1ccc2c(c1)CCN(Cc1ccc3c(c1)CC1(CCN4CCCC4C1)O3)C2 (centres unmarked) [Compound 93]
6. CC1CCCC1N1CCC2(CC1)Cc1cc(-c3ccc(C#N)cc3)ccc1O2 (centres unmarked) [Compound 18]
7. CN(C)Cc1ccc2c(c1)CC1(CCN(C3CCC3)CC1)O2 [Compound 39]

Resp:
1: ≥ 8.00; 2: ≥ 7.00; 3: ≥ 8.00; 4: ≥ 8.00; 5: ≥ 8.00; 6: ≥ 7.00; 7: ≥ 8.00
